# TARGET DESC: T1, BAFF (Sino biological, 10056-HNCH) (UniProt Q9Y275 134-285, biotinylated in the blocking ELISA (site not stated))
# T1 construct: also called BLyS
# T1 sequence (Q9Y275 134-285 limits assumed): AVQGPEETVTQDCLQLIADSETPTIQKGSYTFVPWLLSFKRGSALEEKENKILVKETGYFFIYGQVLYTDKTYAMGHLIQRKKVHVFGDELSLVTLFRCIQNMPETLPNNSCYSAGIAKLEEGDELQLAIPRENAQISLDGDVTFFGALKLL
# ASSAY DETAILS: ELISA, BAFF coated at 1 ug/mL, anti-human IgG-HRP
MEASURED PROPERTY: EC50 (pM)
The reply should contain only the number, in pM.

Sample TACI-9-Fc (Fc fusion, C-terminus of TACI-9 fused directly to the N-terminus of human IgG1 Fc; two identical polypeptide chains; expressed in 293E) SLSCRKEQGKFYDHLLRDCISCASICGQHPKQCAYFCENKLDKTHTCPPCPAPEAEGAPSVFLFPPKPKDTLMISRTPEVTCVVVDVSHEDPEVKFNWYVDGVEVHNAKTKPREEQYNSTYRVVSVLTVLHQDWLNGKEYKCKVSNKALPSSIEKTISKAKGQPREPQVYTLPPSRDELTKNQVSLTCLVKGFYPSDIAVEWESNGQPENNYKTTPPVLDSDGSFFLYSKLTVDKSRWQQGNVFSCSVMHEALHNHYTQKSLSLSPGK ; EC50 observed: 490
